# TESTED ON: human CYP17 in H295R adrenocortical carcinoma cells (Homo sapiens, UniProt P05093)
# Construct: H295R Adrenocortical carcinoma cells [NCI-H295A, ATCC Number CRL-2128, American Type Culture Collection
# TEST SUMMARY: Cell-based human CYP17 inhibition assay, H295R cells
# RUN CONDITIONS: 16 hours, read-out: CYP17 (human H295R adrenal cells)
pIC50: −log10 of the molar value.
VALUE KIND: pIC50

response.value for CC(N)(c1ccncc1)c1cnc(-c2ccc(F)cc2)s1 (stereo not shown) (field: pIC50) = 6.70 to 7.30

response.value for CC(C)C(O)(c1ccncc1)c1cnc(-c2ccc(F)cc2)s1 (stereo not shown) (field: pIC50) = > 7.30

response.value for CC(O)(c1ccncc1)c1nsc(-c2ccc(F)cc2)n1 (stereo not shown) (field: pIC50) = 5.00 to 6.70

response.value for Cn1cc(-c2ccc(C(C)(O)c3ccncc3)s2)ccc1=O (single isomer, unassigned; (-)) [Example 17] (field: pIC50) = > 7.30

response.value for CC(O)(c1ccncc1)c1ccc(-c2ccc(C#N)nc2)cn1 (stereo not shown) (field: pIC50) = 6.70 to 7.30

response.value for CC(O)(c1ccncc1)c1ncc(-c2ccc(F)cc2)s1 (single isomer, unassigned; (-)) [Example 54] (field: pIC50) = > 7.30

response.value for CC(O)(c1ccncc1)c1cnc(-c2cncnc2)s1 (stereo not shown) (field: pIC50) = 5.00 to 6.70

====

# TESTED ON: human CYP17 in H295R adrenocortical carcinoma cells (Homo sapiens, UniProt P05093)
# Construct: H295R Adrenocortical carcinoma cells [NCI-H295A, ATCC Number CRL-2128, American Type Culture Collection
# Sequence (P05093 1-508): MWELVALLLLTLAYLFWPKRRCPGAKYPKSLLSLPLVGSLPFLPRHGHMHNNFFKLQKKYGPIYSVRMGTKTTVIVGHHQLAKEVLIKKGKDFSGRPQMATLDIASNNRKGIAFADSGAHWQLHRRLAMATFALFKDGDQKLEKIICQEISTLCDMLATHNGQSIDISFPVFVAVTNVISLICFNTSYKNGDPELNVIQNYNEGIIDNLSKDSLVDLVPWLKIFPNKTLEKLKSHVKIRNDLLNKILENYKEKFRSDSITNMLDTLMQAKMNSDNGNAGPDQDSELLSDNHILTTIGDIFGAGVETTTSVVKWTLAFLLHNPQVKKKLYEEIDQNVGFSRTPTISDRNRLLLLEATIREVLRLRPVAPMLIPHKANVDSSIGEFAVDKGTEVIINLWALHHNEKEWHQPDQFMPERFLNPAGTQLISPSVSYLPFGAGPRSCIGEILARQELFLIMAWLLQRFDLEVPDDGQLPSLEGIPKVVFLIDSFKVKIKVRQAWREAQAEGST
# TEST SUMMARY: Cell-based human CYP17 inhibition assay, H295R cells
# RUN CONDITIONS: 16 hours, read-out: CYP17 (human H295R adrenal cells)
VALUE KIND: IC50

response.value for CC(O)(c1ccncc1)c1cnc(-c2ccc(C#N)cc2)s1 (stereo not drawn) (field: IC50) = 50 to 200 nM

response.value for Cn1cc(-c2ccc(C(C)(O)c3ccncc3)s2)ccc1=O (single isomer, unassigned; (+)) [Example 16] (field: IC50) = 50 to 200 nM

response.value for CC(O)(c1ccncc1)c1cnc(-c2ccc(Cl)c(C(F)(F)F)c2)s1 (stereo not drawn) (field: IC50) = 50 to 200 nM

response.value for CC(O)(c1ccncc1)c1cc(-c2ccc(F)cc2)sn1 (stereo not drawn) (field: IC50) = < 50 nM

response.value for CCC(O)(c1ccncc1)c1cnc(-c2ccc(F)cc2)s1 (stereo not drawn) (field: IC50) = 50 to 200 nM

response.value for CC(O)(c1ccncc1)c1cnc(-c2ccc(F)c(C#N)c2)s1 (stereo not drawn) (field: IC50) = < 50 nM

response.value for COc1ccc(-c2ccc(C(C)(O)c3ccncc3)nc2)cc1 (single isomer, unassigned) [Example 3] (field: IC50) = 201 to 10000 nM

response.value for CC(O)(c1ccncc1)c1ncc(-c2ccc(F)cc2)s1 (stereo not drawn) [Example 14] (field: IC50) = < 50 nM

response.value for Cn1cc(-c2ccc(C(C)(O)c3ccncc3)o2)ccc1=O (stereo not drawn) (field: IC50) = 201 to 10000 nM
